experimental target: PI3K (p110α/p85α) (Homo sapiens)
Sequence (P42336 whole entry): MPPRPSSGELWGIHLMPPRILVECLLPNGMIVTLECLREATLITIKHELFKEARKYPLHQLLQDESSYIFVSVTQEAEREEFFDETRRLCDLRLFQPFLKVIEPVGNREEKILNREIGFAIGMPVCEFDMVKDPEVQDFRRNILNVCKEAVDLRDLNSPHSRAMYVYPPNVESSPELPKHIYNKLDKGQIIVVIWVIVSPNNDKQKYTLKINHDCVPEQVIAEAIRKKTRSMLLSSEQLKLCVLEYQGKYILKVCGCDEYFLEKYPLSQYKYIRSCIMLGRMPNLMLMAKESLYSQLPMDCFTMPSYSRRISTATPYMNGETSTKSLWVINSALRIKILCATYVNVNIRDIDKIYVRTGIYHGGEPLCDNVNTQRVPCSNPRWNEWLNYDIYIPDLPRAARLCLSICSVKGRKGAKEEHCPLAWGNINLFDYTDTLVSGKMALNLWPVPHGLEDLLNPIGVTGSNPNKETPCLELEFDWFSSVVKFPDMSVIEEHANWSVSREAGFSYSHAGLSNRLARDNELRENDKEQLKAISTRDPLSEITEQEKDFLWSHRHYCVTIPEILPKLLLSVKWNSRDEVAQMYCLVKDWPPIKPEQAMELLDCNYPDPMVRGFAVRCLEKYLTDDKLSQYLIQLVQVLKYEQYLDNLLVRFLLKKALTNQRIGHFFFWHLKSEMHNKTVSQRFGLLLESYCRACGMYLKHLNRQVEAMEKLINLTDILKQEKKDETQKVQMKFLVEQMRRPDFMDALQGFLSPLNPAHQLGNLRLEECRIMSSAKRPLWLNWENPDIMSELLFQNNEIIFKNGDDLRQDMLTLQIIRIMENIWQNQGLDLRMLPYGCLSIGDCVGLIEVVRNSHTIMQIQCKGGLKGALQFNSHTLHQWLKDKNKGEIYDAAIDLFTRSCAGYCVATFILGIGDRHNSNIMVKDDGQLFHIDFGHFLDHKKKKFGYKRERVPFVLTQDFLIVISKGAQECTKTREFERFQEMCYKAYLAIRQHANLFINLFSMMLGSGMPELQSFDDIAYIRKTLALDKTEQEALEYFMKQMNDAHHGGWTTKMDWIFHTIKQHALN
Sequence (P27986 whole entry partner): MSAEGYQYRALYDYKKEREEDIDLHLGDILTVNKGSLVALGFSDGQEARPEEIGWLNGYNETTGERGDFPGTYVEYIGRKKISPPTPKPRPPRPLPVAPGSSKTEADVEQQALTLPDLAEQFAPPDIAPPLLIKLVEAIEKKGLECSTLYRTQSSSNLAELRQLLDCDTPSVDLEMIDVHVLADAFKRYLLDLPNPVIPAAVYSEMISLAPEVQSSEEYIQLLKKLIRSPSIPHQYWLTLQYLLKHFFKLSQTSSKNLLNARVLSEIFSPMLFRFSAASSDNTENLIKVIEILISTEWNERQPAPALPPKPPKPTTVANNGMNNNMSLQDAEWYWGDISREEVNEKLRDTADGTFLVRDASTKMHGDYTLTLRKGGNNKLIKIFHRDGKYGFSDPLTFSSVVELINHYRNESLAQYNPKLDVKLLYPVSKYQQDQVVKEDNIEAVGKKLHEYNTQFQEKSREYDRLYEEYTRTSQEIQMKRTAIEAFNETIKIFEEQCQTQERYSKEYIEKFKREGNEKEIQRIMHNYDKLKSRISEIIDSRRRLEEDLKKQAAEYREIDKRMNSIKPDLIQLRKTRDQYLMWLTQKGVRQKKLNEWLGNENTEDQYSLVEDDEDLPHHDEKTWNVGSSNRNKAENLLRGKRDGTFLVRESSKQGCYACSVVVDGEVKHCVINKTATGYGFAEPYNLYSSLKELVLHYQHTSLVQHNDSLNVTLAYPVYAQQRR
assay details: PI3K activity assay (ADP Hunter Plus)
condition summary: read-out: PI3Kα IC50
metric: IC50 (nM)

{"compound": "CN(C)CCCNC(=O)c1cc2c(N3CCOCC3)nc(-c3cnc(N)nc3)cn2n1 [1-09]", "metric": "IC50", "data value": 443}
{"compound": "Nc1ncc(-c2cn3nc(C(=O)N[C@H]4CC[C@H](O)CC4)cc3c(N3CCOCC3)n2)cn1 [1-10]", "metric": "IC50", "data value": 16}
{"compound": "NC(=O)c1cn2nc(-c3cnc(N)nc3)nc(N3CCOCC3)c2n1 [1-01]", "metric": "IC50", "data value": 19}
{"compound": "NC(=O)c1cc2c(N3CCOCC3)nc(-c3cnc(N)nc3)cn2n1 [1-05]", "metric": "IC50", "data value": 14}
{"compound": "Nc1ncc(-c2cn3nc(C(=O)N4CCCC4)cc3c(N3CCOCC3)n2)cn1 [1-07]", "metric": "IC50", "data value": 9}
{"compound": "COCCNC(=O)c1cn2nc(-c3cnc(N)nc3)nc(N3CCOCC3)c2n1 [1-02]", "metric": "IC50", "data value": 3}
{"compound": "Nc1ncc(-c2cn3nc(C(=O)NC4CCOCC4)cc3c(N3CCOCC3)n2)cn1 [1-04]", "metric": "IC50", "data value": 26}
